# Tested on: normal primary NK cells, pool 3 (3 donors) (IL-2 2.5 ng/mL)
# experiment.description: percent inhibition of viability; higher = more inhibition;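 note: normalised to DMSO-only wells as negative and benzethonium chloride as positive control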
# study.conditions: 72 h; 1 nM
assay.metric: percent inhibition of viability (%)
// note: answer is a bare numeric in %

IN: # get_value(readout= percent inhibition of viability, system= normal primary NK cells, pool 3 (3 donors) (IL-2 2.5 ng/mL)) for CCOc1cc2ncc(C#N)c(Nc3ccc(OCc4ccccn4)c(Cl)c3)c2cc1NC(=O)/C=C/CN(C)C [Neratinib] (max concentration tested 1000 nM)
OUT: -5.37

IN: # get_value(readout= percent inhibition of viability, system= normal primary NK cells, pool 3 (3 donors) (IL-2 2.5 ng/mL)) for CN(C)c1nc(N(C)C)nc(N(C)C)n1 [Altretamine] (max concentration tested 10000 nM)
OUT: -9.05

IN: # get_value(readout= percent inhibition of viability, system= normal primary NK cells, pool 3 (3 donors) (IL-2 2.5 ng/mL)) for C=CC(=O)Nc1cc2c(Nc3ccc(F)c(Cl)c3)ncnc2cc1OCCCN1CCOCC1 [Canertinib] (max concentration tested 10000 nM)
OUT: -4.75

IN: # get_value(readout= percent inhibition of viability, system= normal primary NK cells, pool 3 (3 donors) (IL-2 2.5 ng/mL)) for CC(=O)N(O)CCCCCNC(=O)CCC(=O)N(O)CCCCCNC(=O)CCC(=O)N(O)CCCCCN [Deferoxamine] (max concentration tested 10000 nM)
OUT: -1.79

IN: # get_value(readout= percent inhibition of viability, system= normal primary NK cells, pool 3 (3 donors) (IL-2 2.5 ng/mL)) for CC1=C(/C=C/C(C)=C/C=C/C(C)=C/C(=O)O)C(C)(C)CCC1 [Tretinoin] (max concentration tested 10000 nM)
OUT: -4.65

IN: # get_value(readout= percent inhibition of viability, system= normal primary NK cells, pool 3 (3 donors) (IL-2 2.5 ng/mL)) for N#CC(c1ccnc(OCc2ccc(CN3CCOCC3)cc2)n1)c1nc2ccccc2s1 (configuration not stated) [Bentamapimod] (max concentration tested 10000 nM)
OUT: -6.62

IN: # get_value(readout= percent inhibition of viability, system= normal primary NK cells, pool 3 (3 donors) (IL-2 2.5 ng/mL)) for CN(C)c1cc2c(cc1Sc1nc3c(N)nccc3n1CCNCC(C)(C)C)OCO2 [CUDC-305] (max concentration tested 10000 nM)
OUT: -11.7

IN: # get_value(readout= percent inhibition of viability, system= normal primary NK cells, pool 3 (3 donors) (IL-2 2.5 ng/mL)) for O=NN(CCCl)C(=O)NCCCl [Carmustine] (max concentration tested 10000 nM)
OUT: -2.97

IN: # get_value(readout= percent inhibition of viability, system= normal primary NK cells, pool 3 (3 donors) (IL-2 2.5 ng/mL)) for O=C(Nc1cccc(Cl)c1)Nc1ncc(CCNc2ncnc3ccsc23)s1 [SNS-314] (max concentration tested 1000 nM)
OUT: 0.22

IN: # get_value(readout= percent inhibition of viability, system= normal primary NK cells, pool 3 (3 donors) (IL-2 2.5 ng/mL)) for C=CC[C@@H]1/C=C(\C)C[C@H](C)C[C@H](OC)[C@H]2O[C@@](O)(C(=O)C(=O)N3CCCC[C@H]3C(=O)O[C@H](/C(C)=C/[C@@H]3CC[C@@H](O)[C@H](OC)C3)[C@H](C)[C@@H](O)CC1=O)[C@H](C)C[C@@H]2OC [Tacrolimus] (max concentration tested 10000 nM)
OUT: 10.7

IN: # get_value(readout= percent inhibition of viability, system= normal primary NK cells, pool 3 (3 donors) (IL-2 2.5 ng/mL)) for O=C(Nc1ccncc1)C(=O)c1cn(Cc2ccc(Cl)cc2)c2ccccc12 [Indibulin] (max concentration tested 10000 nM)
OUT: -1.93

IN: # get_value(readout= percent inhibition of viability, system= normal primary NK cells, pool 3 (3 donors) (IL-2 2.5 ng/mL)) for COc1cc(O)c2c(c1)/C=C/C[C@H](O)[C@H](O)C(=O)/C=C\C[C@H](C)OC2=O [(5Z)-7-Oxozeaenol] (max concentration tested 10000 nM)
OUT: -13.2

###

# Test system: SNK-6 (IL-2 2.5 ng/mL)
# experiment.description: percent inhibition of viability; higher = more inhibition
# study.conditions: 72 h; 1 nM
For each entry below, report its percent inhibition of viability value.
// note: answer is a bare numeric in %

IN: Recorded percent inhibition of viability of CCn1c(-c2nonc2N)nc2c(C#CC(C)(C)O)ncc(OC[C@H]3CCCNC3)c21 (max concentration tested 10000 nM) , please.
OUT: 1.15

IN: Recorded percent inhibition of viability of COc1cc(F)c(F)c(Nc2ccc(I)cc2F)c1NS(=O)(=O)C1(C[C@H](O)CO)CC1 [Refametinib] (max concentration tested 10000 nM) , please.
OUT: 2.1

IN: Recorded percent inhibition of viability of O=C(Nc1ccncc1)C(=O)c1cn(Cc2ccc(Cl)cc2)c2ccccc12 [Indibulin] (max concentration tested 10000 nM) , please.
OUT: 23.1

IN: Recorded percent inhibition of viability of CC(C)Oc1ccc(C(=O)N[C@H](CNC(=O)CN(C)C)Cc2ccc(-c3cn4cccc([C@H](C)O)c4n3)cc2)cc1Cl (max concentration tested 10000 nM) , please.
OUT: 1.52

###

# Tested on: normal primary NK cells, pool 2 (3 donors) (IL-2 2.5 ng/mL)
# experiment.description: percent inhibition of viability; higher = more inhibition
# study.conditions: 72 h; 10 nM
assay.metric: percent inhibition of viability (%)
// note: answer is a bare numeric in %

IN: Recorded percent inhibition of viability of COc1ncc(-c2ccc3nccc(-c4ccnnc4)c3c2)cc1NS(=O)(=O)c1ccc(F)cc1F [Omipalisib] (max concentration tested 1000 nM) , please.
OUT: 24.7

IN: Recorded percent inhibition of viability of S=c1[nH]cnc2nc[nH]c12 [Mercaptopurine] (max concentration tested 10000 nM) , please.
OUT: -7.32

IN: Recorded percent inhibition of viability of CCn1c(-c2nonc2N)nc2cnc(Oc3cccc(NC(=O)c4ccc(OCCN5CCOCC5)cc4)c3)cc21 (max concentration tested 10000 nM) , please.
OUT: -2.3

IN: Recorded percent inhibition of viability of Cn1cc(C2=Nc3cc(NC(=O)C(N)C4CCCCC4)cc4c3C2=CNNC4=O)cn1 (stereo unspecified) (max concentration tested 10000 nM) , please.
OUT: -7.44

IN: Recorded percent inhibition of viability of C#Cc1cccc(Nc2ncnc3cc4c(cc23)OCCOCCOCCO4)c1 [Icotinib] (max concentration tested 10000 nM) , please.
OUT: 5.07

IN: Recorded percent inhibition of viability of CCN(CC)C(=S)SSC(=S)N(CC)CC [Disulfiram] (max concentration tested 100000 nM) , please.
OUT: -8.13

###

# Test system: KAI3 (IL-2 2.5 ng/mL)
# experiment.description: percent inhibition of viability; higher = more inhibition
# study.conditions: 72 h; 1000 nM
Assign classes using reported percent inhibition of viability values and the ranges bottom range: < 10%; center range: ≥ 10% and < 80%; top range: ≥ 80%, please.

IN: Category of Cc1c2oc3c(C)ccc(C(=O)N[C@@H]4C(=O)N[C@H](C(C)C)C(=O)N5CCC[C@H]5C(=O)N(C)CC(=O)N(C)[C@@H](C(C)C)C(=O)O[C@@H]4C)c3nc-2c(C(=O)N[C@@H]2C(=O)N[C@H](C(C)C)C(=O)N3CCC[C@H]3C(=O)N(C)CC(=O)N(C)[C@@H](C(C)C)C(=O)O[C@@H]2C)c(N)c1=O [Dactinomycin] (max concentration tested 1000 nM) , please.
OUT: top range

IN: Category of O=C(Nc1ccc2[nH]nc(-c3ccncc3)c2c1)[C@@H]1CCN(CC(=O)N2CCN(c3ccc(-c4ncccn4)cc3)CC2)C1 (max concentration tested 10000 nM) , please.
OUT: center range

IN: Category of Cc1sc2c(c1C)C(c1ccc(Cl)cc1)=N[C@@H](CC(=O)Nc1ccc(O)cc1)c1nnc(C)n1-2 [OTX015] (max concentration tested 10000 nM) , please.
OUT: center range

IN: Category of Cc1[nH]c(/C=C2\C(=O)Nc3ccccc32)c(C)c1CCC(=O)O [Orantinib] (max concentration tested 10000 nM) , please.
OUT: bottom range

IN: Category of CN(c1ncccc1CNc1nc(Nc2ccc3c(c2)CC(=O)N3)ncc1C(F)(F)F)S(C)(=O)=O (max concentration tested 10000 nM) , please.
OUT: center range

IN: Category of C=CC(=O)Nc1cc2c(Nc3ccc(F)c(Cl)c3)ncnc2cc1OCCCN1CCOCC1 [Canertinib] (max concentration tested 10000 nM) , please.
OUT: center range

IN: Category of Cn1cnc2c(F)c(Nc3ccc(Br)cc3Cl)c(C(=O)NOCCO)cc21 [Selumetinib] (max concentration tested 10000 nM) , please.
OUT: center range

IN: Category of O=c1cc(N2CCOCC2)oc2c(-c3ccccc3)cccc12 (max concentration tested 100000 nM) , please.
OUT: bottom range

IN: Category of CN(C)c1cc2c(cc1Sc1nc3c(N)nccc3n1CCNCC(C)(C)C)OCO2 [CUDC-305] (max concentration tested 10000 nM) , please.
OUT: top range

IN: Category of CCS(=O)(=O)c1cccc(-c2cc(C(=O)NC3CCN(C)CC3)c(C)c3[nH]c4ncc(C)cc4c23)c1 [TAK-901] (max concentration tested 1000 nM) , please.
OUT: center range

IN: Category of S=c1[nH]cnc2nc[nH]c12 [Mercaptopurine] (max concentration tested 10000 nM) , please.
OUT: bottom range

IN: Category of COc1ccc(C[C@H](NC(=O)[C@H](C)NC(=O)CN2CCOCC2)C(=O)N[C@@H](Cc2ccccc2)C(=O)C2(C)CO2)cc1 (stereo in doubt) [ONX-0914] (max concentration tested 10000 nM) , please.
OUT: top range

IN: Category of COc1cc2c(NC3CCN(C(C)C)CC3)nc(C3CCCCC3)nc2cc1OCCCN1CCCC1 [UNC0638] (max concentration tested 10000 nM) , please.
OUT: center range

IN: Category of O=C(c1ccc(F)c(F)c1Nc1ccc(I)cc1F)N1CC(O)([C@@H]2CCCCN2)C1 [Cobimetinib] (max concentration tested 1000 nM) , please.
OUT: center range

IN: Category of CNC(=O)c1cc(Oc2ccc(NC(=O)Nc3cc(C(C)(C)C)nn3-c3ccc4ncccc4c3)c(F)c2)ccn1 [Rebastinib] (max concentration tested 1000 nM) , please.
OUT: bottom range

IN: Category of COc1cc([C@@H]2c3cc4c(cc3[C@@H](O[C@@H]3O[C@@H]5CO[C@@H](c6cccs6)O[C@H]5[C@H](O)[C@H]3O)[C@H]3COC(=O)[C@H]23)OCO4)cc(OC)c1O [Teniposide] (max concentration tested 10000 nM) , please.
OUT: center range

IN: Category of O=C(Nc1ccncc1)C(=O)c1cn(Cc2ccc(Cl)cc2)c2ccccc12 [Indibulin] (max concentration tested 10000 nM) , please.
OUT: center range

IN: Category of CC[C@]1(O)C[C@@H]2CN(CCc3c([nH]c4ccccc34)[C@@](C(=O)OC)(c3cc4c(cc3OC)N(C)[C@H]3[C@@](O)(C(=O)OC)[C@H](OC(C)=O)[C@]5(CC)C=CCN6CC[C@]43[C@@H]65)C2)C1 [Vinblastine] (max concentration tested 1000 nM) , please.
OUT: top range

IN: Category of CCOC(=O)CCNc1cc(N2CCc3ccccc3CC2)nc(-c2ccccn2)n1 [GSK-J4] (max concentration tested 100000 nM) , please.
OUT: bottom range

IN: Category of COCC1(CO)C(=O)C2CCN1CC2 (stereo not drawn) [APR-246] (max concentration tested 10000 nM) , please.
OUT: bottom range

IN: Category of CN1CC[C@H](c2c(O)cc(O)c3c(=O)cc(-c4ccccc4Cl)oc23)[C@H](O)C1 [Alvocidib] (max concentration tested 10000 nM) , please.
OUT: top range

IN: Category of CNC(=O)c1cccc2cc(Oc3ccnc4cc(OCC5(N)CC5)c(OC)cc34)ccc12 [Lucitanib] (max concentration tested 10000 nM) , please.
OUT: center range

IN: Category of Cc1[nH]c2ccccc2c1CCNCc1ccc(/C=C/C(=O)NO)cc1 [Panobinostat] (max concentration tested 1000 nM) , please.
OUT: top range
